test: Effective concentration as Adenylate cyclase activity was measured in rat homogenate
I'd be grateful if you could share measured pEC50 for these entries.
pEC50 field: float, defined as -log10 of concentration (mol/L).

So, `Oc1ccc2c(c1)CN[C@@H]1CCc3cc(O)c(O)cc3[C@@H]21` ? Its pEC50 was 6.89

So, `Cc1ccc2c(c1)CN[C@@H]1CCc3cc(O)c(O)cc3[C@@H]21` ? Its pEC50 was 6.87

So, `Oc1cc2c(cc1O)[C@H]1c3cc(-c4ccccc4)ccc3CN[C@@H]1CC2` ? Its pEC50 was 8.00

So, `Cc1cccc2c1CN[C@@H]1CCc3cc(O)c(O)cc3[C@@H]21` ? Its pEC50 was 6.82

So, `CCc1ccc2c(c1)[C@@H]1c3cc(O)c(O)cc3CC[C@H]1NC2` ? Its pEC50 was 6.21

So, `CCCN1Cc2cc(C)ccc2[C@@H]2c3cc(O)c(O)cc3CC[C@H]21` ? Its pEC50 was 8.00

So, `Oc1ccc2c(c1)[C@@H]1c3cc(O)c(O)cc3CC[C@H]1NC2` ? Its pEC50 was 6.83
